# Tested System: T1, human GIP receptor (human) (UniProt P48546)
# T1 sequence (looked up): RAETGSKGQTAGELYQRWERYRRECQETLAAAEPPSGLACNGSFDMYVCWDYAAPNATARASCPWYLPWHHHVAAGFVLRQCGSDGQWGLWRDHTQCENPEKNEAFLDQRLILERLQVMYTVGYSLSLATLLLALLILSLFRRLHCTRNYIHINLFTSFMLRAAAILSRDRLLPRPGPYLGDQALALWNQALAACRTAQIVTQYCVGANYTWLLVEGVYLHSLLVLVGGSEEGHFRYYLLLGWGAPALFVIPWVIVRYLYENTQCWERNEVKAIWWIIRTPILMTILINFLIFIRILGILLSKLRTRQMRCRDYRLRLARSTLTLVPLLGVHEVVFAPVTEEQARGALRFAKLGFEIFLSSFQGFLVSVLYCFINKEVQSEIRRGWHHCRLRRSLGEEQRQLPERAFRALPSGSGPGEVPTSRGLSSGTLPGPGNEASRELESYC
# Assay Method Text: cell-based or functional assay
Classify by measured Relative cAMP EC50: Condition met if it is equal to or exceeds 0.09 nM, Condition not met if it is smaller.

Worked examples follow.
1) YXQGTXTSDXXIXLDXKAQXEFIEXLIEGGPSSGAPPPSGSE (Aib, αMeF, 4Pal, αMeS, αMeL, Orn, Me4Pal, αMeY, acyl, amide; synthetic construct; SITE 2: note = 2-Aminoisobutyric Acid; SITE 6: note = alpha-methyl-L-phenylalanine; SITE 10: note = 3-(4-Pyridyl)-L-alanine; SITE 11: note = alpha-methyl-L-serine; SITE 13: note = alpha-methyl-leucine; SITE 16: note = L-ornithine; SITE 17: note = Lysine is chemically modified th) [Example 1166] : Condition not met
2) YXQGTFTSDXSQXLDXKAQXAFIEYLIQXGPSSGEPPPSGSEE (non-natural residues; lipidated Lys AEEA-γGlu-C18 diacid; C-term amide; synthetic construct; SITE 2: note = 2-Aminoisobutyric Acid; SITE 10: note = 3-(4-Pyridyl)-L-alanine; SITE 13: note = alpha-methyl-leucine; SITE 16: note = L-ornithine; SITE 17: note = Lysine is chemically modified through conjugation of the epsilon-amino group of the Lysine side chain with (2-[2-(2-) [Example 1096] : Condition not met
3) YXQGTFTSDXXQXLDXKAQXQFIQXLIEXGPSSGAPPPSGGGE (not fully specified; Aib, 4Pal, Me4Pal, alpha-methyl residues, Orn, lipidated Lys, amide; synthetic construct; SITE 2: note = 2-Aminoisobutyric Acid; SITE 10: note = 3-(4-Pyridyl)-L-alanine; SITE 11: note = alpha-methyl-L-serine; SITE 13: note = alpha-methyl-leucine; SITE 16: note = L-ornithine; SITE 17: note = Lysine is chemically modified through conjugation of the epsilon-amino group) [Example 1186] : Condition not met

Problem: Please indicate if the recorded Relative cAMP EC50 for YXQGTFTSDFSXXLDKKAQXAFIEYLLEAGPSSGAPPPSGT (non-natural residues, AEEA-γGlu-C18 diacid acylation; synthetic construct; SITE 2: note = 2-Aminoisobutyric Acid; SITE 12: note = L-ornithine; SITE 13: note = alpha-methyl-leucine; SITE 17: note = Lysine is chemically modified through conjugation of the epsilon-amino group of the Lysine side chain with (2-[2-(2-Amino-ethoxy)-ethoxy]-acetyl)-(gamma-Glu)) [Example 213] meets or exceeds 0.09 nM.
Solution: Condition met

Problem: Please indicate if the recorded Relative cAMP EC50 for YXQGTXTSDXSIXLDXKAQXEFIEXLIEGGPSSGEPPPSGS (non-natural residues; lipidated Lys AEEA-γGlu-C18 diacid; C-term amide; synthetic construct; SITE 2: note = 2-Aminoisobutyric Acid; SITE 6: note = alpha-methyl-2-fluoro-L-phenylalanine; SITE 10: note = 3-(4-Pyridyl)-L-alanine; SITE 13: note = alpha-methyl-leucine; SITE 16: note = L-ornithine; SITE 17: note = Lysine is chemically modified through conjugation of the epsil) [Example 644] meets or exceeds 0.09 nM.
Solution: Condition not met
